TARGET: T1, PDLoneECDHisCtag (human, UniProt Q9NZQ7 19-238)
T1 construct: Expressed in HEK-293F cells; theoretical molecular weight 29 kDa; also called recombinant human PD-L1 ECD; human PD-L1 (BLI); not shown: C-terminal His-tag; C-tag
T1 sequence (Q9NZQ7 19-238, form in doubt): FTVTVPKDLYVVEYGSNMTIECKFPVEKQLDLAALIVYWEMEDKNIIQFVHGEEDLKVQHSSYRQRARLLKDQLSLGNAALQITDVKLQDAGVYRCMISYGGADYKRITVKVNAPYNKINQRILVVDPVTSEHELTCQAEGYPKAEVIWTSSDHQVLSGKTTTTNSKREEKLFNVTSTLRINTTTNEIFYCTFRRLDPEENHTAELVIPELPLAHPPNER
TEST SUMMARY: BLI cross-block, second antibody on PDLoneECDHisCtag held by immobilised 511-LC33S; bold = blocking
QUANTITY KIND: association response of the second antibody (nm)

# BINDER, REPORTED VALUE
measured = [
    ("IgG1-338-FEAR (antibody, V domains shown) VH: EVQVVESGGGLVQPGGSLRLSCAASGFTFSRFWMSWVRQAPGKGLEWVANIKQDGGEKYYVDSVKGRFTISRDNAKNSLYLQMNSLRGEDTAVYYCARDDNWNGHFDYWGQGTLVTVSS VL: DIQMTQSPSTLSASVGDRVTITCRASQSISSWLAWYQQKPGKAPNLLIYKASSLESGVPSRFSGSGSGTEFTLTISSLQPDDFATYYCQQYYGSYITFGQGTRLEIKR", 0),
]
